target desc: UniProtKB O43451
Sequence (O43451 whole entry, looked up): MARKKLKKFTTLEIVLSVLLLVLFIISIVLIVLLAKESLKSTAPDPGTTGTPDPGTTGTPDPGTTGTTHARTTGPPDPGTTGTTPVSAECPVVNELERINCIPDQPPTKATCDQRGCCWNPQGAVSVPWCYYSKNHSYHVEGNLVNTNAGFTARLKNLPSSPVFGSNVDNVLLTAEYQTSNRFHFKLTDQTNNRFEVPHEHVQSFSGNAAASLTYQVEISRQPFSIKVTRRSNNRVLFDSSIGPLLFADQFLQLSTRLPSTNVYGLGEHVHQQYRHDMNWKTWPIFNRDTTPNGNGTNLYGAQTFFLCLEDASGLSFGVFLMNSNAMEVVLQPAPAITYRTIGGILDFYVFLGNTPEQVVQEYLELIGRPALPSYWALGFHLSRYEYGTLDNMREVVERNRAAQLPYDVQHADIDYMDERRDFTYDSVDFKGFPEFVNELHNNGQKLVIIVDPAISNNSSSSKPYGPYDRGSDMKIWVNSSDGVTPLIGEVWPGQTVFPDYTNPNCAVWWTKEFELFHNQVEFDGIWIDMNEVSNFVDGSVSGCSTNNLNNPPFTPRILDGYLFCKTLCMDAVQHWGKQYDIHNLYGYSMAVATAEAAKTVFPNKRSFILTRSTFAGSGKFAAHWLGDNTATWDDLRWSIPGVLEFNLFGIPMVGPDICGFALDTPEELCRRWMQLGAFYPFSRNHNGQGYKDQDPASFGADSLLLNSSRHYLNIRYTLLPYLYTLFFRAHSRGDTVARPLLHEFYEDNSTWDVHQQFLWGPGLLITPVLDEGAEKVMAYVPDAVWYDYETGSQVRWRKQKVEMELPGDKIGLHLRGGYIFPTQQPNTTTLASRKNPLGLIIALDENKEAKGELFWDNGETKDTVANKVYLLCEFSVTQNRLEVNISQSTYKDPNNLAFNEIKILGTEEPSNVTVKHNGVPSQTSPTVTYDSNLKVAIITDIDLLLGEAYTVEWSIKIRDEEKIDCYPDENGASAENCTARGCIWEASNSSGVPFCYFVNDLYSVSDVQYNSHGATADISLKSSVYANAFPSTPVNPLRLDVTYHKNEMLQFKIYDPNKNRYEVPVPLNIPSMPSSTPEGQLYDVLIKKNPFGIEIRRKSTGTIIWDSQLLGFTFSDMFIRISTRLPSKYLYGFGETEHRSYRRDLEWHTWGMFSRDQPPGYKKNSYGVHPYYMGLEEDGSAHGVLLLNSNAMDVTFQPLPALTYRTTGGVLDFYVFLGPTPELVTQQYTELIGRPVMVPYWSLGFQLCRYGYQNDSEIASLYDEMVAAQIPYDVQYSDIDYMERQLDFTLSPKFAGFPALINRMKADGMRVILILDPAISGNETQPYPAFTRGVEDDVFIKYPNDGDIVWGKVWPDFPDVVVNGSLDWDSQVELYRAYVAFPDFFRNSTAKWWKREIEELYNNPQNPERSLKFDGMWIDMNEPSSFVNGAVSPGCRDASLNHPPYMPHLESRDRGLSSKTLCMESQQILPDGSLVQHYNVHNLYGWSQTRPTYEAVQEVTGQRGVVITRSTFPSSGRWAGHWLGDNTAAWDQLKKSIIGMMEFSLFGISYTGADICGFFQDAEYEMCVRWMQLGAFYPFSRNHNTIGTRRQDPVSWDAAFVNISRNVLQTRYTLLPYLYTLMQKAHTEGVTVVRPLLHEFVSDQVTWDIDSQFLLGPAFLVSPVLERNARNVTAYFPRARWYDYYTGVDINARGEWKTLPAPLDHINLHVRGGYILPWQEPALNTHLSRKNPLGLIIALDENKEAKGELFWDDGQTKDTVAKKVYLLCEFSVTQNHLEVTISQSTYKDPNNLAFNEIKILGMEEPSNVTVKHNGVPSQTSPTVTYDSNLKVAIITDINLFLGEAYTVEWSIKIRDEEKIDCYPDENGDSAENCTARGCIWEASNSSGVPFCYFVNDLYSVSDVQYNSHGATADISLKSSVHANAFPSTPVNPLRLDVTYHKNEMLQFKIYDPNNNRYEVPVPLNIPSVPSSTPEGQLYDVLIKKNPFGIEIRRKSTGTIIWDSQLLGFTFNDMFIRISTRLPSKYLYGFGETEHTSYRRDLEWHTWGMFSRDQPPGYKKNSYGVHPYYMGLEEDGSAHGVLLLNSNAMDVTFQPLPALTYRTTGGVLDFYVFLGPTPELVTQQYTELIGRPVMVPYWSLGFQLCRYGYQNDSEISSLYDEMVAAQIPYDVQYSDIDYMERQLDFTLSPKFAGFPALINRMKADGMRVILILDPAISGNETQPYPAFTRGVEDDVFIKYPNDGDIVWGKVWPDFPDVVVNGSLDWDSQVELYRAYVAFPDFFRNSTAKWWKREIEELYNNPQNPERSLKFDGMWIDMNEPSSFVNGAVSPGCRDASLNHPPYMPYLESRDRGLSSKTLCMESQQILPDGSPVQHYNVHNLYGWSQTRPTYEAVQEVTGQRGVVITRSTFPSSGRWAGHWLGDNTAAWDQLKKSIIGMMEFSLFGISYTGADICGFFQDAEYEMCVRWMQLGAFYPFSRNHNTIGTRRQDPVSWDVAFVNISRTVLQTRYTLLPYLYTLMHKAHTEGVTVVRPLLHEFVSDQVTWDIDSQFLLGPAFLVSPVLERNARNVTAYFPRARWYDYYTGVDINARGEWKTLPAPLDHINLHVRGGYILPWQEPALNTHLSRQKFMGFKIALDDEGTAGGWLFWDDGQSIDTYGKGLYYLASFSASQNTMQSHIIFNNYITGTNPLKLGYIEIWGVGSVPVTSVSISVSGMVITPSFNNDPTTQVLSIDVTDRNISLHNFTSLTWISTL
assay: Inhibition of alpha glucosidase at 100 uM
Calls of active or inactive are those of the source. The rule behind the calls is not given here.

- molecule: "C=C1CC[C@@H]2[C@](C)(CO)[C@H](O)CC[C@@]2(C)[C@@H]1/C=C/C1=CC(=C/C=C/c2ccccc2)/OC1=O"
  inhibition: "84.3%"
- molecule: "C=C1CC[C@@H]2[C@]3(C)COCO[C@@H]3CC[C@@]2(C)[C@@H]1C/C=C1/C(=O)OC[C@H]1O"
  inhibition: "inactive"
- molecule: "C=C1CC[C@@H]2[C@](C)(CO)[C@H](O)CC[C@@]2(C)[C@@H]1CCC1C(=O)OC[C@H]1O (stereo not given in full)"
  inhibition: "34.2%"
- molecule: "COc1ccc(/C=C2C=C(/C=C/[C@@H]3[C@@]4(CC[C@@H]5[C@](C)(CO)[C@H](O)CC[C@]53C)CO4)C(=O)O/2)cc1"
  inhibition: "37.7%"
- molecule: "C=C1CC[C@@H]2[C@](C)(CO)[C@H](O)CC[C@@]2(C)[C@@H]1/C=C/C1=CC(=C/CCC)/OC1=O"
  inhibition: "43.5%"
- molecule: "C=C1CC[C@@H]2[C@](C)(CO)[C@H](O)CC[C@@]2(C)[C@@H]1/C=C/C1=CC(=C/c2cccc(Br)c2)/OC1=O"
  inhibition: "16.7%"
- molecule: "C=C1CC[C@@H]2[C@]3(C)COC(c4cccc(Br)c4)O[C@@H]3CC[C@@]2(C)[C@@H]1C/C=C1/C(=O)OC[C@H]1O (stereo not given in full)"
  inhibition: "49.6%"
- molecule: "C=C1CC[C@@H]2[C@](C)(CO)[C@H](O)CC[C@@]2(C)[C@@H]1/C=C/C1=CC(=C(C)C)OC1=O"
  inhibition: "17.1%"
- molecule: "C=C1CC[C@@H]2[C@]3(C)COC(c4ccc(F)cc4)O[C@@H]3CC[C@@]2(C)[C@@H]1C/C=C1/C(=O)OC[C@H]1O (stereo not given in full)"
  inhibition: "26.2%"
- molecule: "C=C1CC[C@@H]2[C@]3(C)COC(c4cc(OC)c(OC)cc4OC)O[C@@H]3CC[C@@]2(C)[C@@H]1C/C=C1/C(=O)OC[C@H]1O (stereo not given in full)"
  inhibition: "14.5%"
- molecule: "C=C1CC[C@@H]2[C@](C)(CO)[C@H](O)CC[C@@]2(C)[C@@H]1C/C=C1/C(=O)OC[C@H]1O"
  inhibition: "inactive"
- molecule: "C[C@]1(CO)[C@H]2CC[C@@]3(CO3)[C@@H](/C=C/C3=CC(=C/C=C/c4ccccc4)/OC3=O)[C@]2(C)CC[C@H]1O"
  inhibition: "49.2%"
- molecule: "C=C1CC[C@@H]2[C@]3(C)COC(c4ccc(Cl)cc4)O[C@@H]3CC[C@@]2(C)[C@@H]1C/C=C1/C(=O)OC[C@H]1O (stereo not given in full)"
  inhibition: "inactive"
- molecule: "C=C1CC[C@@H]2[C@](C)(CO)[C@H](O)CC[C@@]2(C)[C@@H]1/C=C/C1=CC(=C/C=C(/C)CCC=C(C)C)/OC1=O"
  inhibition: "inactive"
- molecule: "C=C1CC[C@@H]2[C@](C)(CO)[C@H](O)CC[C@@]2(C)[C@@H]1/C=C/C1=CC(=C/C)/OC1=O"
  inhibition: "15.1%"
